- MEASURED_ON: Full length human recombinant HDAC6 protein (Homo sapiens, UniProt Q9UBN7)
- Sequence (Q9UBN7 1-1215): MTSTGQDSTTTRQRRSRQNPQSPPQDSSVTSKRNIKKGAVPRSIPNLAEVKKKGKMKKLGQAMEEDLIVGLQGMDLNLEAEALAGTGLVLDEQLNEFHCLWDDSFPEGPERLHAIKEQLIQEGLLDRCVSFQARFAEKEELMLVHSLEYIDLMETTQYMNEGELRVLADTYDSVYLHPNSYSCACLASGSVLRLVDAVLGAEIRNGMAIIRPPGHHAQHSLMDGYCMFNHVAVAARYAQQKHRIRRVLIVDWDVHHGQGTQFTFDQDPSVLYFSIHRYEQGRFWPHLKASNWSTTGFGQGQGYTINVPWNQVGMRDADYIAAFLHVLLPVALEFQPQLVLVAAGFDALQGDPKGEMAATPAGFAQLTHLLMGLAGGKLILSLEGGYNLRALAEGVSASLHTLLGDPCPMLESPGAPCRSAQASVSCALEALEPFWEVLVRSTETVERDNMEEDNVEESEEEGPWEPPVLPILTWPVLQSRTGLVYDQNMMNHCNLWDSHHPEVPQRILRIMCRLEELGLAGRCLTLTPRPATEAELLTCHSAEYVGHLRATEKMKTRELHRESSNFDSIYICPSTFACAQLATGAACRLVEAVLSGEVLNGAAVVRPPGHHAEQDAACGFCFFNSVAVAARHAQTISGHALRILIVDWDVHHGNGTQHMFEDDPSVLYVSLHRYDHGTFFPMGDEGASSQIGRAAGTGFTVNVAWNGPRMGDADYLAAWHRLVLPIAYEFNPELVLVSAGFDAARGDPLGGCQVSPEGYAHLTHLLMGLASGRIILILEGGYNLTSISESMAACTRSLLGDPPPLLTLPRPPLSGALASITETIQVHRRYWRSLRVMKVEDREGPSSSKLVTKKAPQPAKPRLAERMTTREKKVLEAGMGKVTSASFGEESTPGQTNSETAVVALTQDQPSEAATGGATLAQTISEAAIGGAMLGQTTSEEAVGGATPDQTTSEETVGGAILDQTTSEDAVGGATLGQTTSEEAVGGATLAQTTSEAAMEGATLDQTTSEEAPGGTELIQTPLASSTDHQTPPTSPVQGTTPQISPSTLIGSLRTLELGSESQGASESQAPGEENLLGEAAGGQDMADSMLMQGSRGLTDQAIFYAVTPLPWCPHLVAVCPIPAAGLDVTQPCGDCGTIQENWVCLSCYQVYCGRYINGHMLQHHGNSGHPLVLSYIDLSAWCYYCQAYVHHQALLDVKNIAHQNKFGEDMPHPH
- PROTOCOL_SUMMARY: In vitro histone deacetylase assay: enzymatic HDAC6 electrophoretic mobility shift assay
- EXPERIMENTAL_SETUP: 1 nM enzyme, 2 μM peptide substrate RHKK(Ac)-NH2, 25° C., 12 concentrations; read-out: Inhibitory Concentration (IC50) Values against HDAC6, Activity Range
pIC50: −log10 of the molar value.
Examples of compounds with documented pIC50 follow.

1) O=C(NO)c1ccc2c(c1)OCCN(C(=O)Cc1cc(C(F)(F)F)cc(C(F)(F)F)c1)C2 | 6.30 to 7.00

For `COCC(C)(C)C(=O)N1CCOc2cc(C(=O)NO)ccc2C1` , what is its reported pIC50?
≥ 7.00

For CC(C)(C)OC(=O)N1CCC2(CC1)OC(C(=O)N1CCOc3cc(C(=O)NO)ccc3C1)c1ccccc12 (stereo not drawn) , what is its reported pIC50?
6.30 to 7.00

For `CC(=O)N1Cc2ccc(C(=O)NO)cc2O[C@@H](C)C1` , what is its reported pIC50?
< 6.30

For `O=C(NO)c1ccc2c(c1)OCCN(C(=O)C1CCCCC1)C2` , what is its reported pIC50?
≥ 7.00

For `O=C(NO)c1ccc2c(c1)OCCN(C(=O)[C@H]1CCCOC1)C2` , what is its reported pIC50?
≥ 7.00

For `C[C@H]1COc2cc(C(=O)NO)ccc2CN1C(=O)C1CC1` , what is its reported pIC50?
≥ 7.00

For `COCC1(C(=O)N2CCOc3cc(C(=O)NO)ccc3C2)CCC1` , what is its reported pIC50?
≥ 7.00

For `O=C(NO)c1ccc2c(c1)OCCN(C(=O)[C@@H]1CCCOC1)C2` , what is its reported pIC50?
≥ 7.00

For `CN(C)c1c(C(=O)N2CCOc3cc(C(=O)NO)ccc3C2)sc2ccccc12` , what is its reported pIC50?
≥ 7.00

For O=C(NO)c1ccc2c(c1)OCCN(C(=O)C1CC3CCC(C1)O3)C2 (stereo not drawn) , what is its reported pIC50?
≥ 7.00

For O=C(NO)c1ccc2c(c1)OCCN(C(=O)C1CC13CCNCC3)C2 (stereo not drawn) , what is its reported pIC50?
6.30 to 7.00

Reference source for all entries: patent US11891365B2
